Hello, the source for this data is PubChem BioAssay AID743417, in case you need it.

System: Clone20 osteoblast Shn3 3'UTR firefly luciferase, 24 h
Assay: Shn3 3'UTR reporter inhibitors, dose response, cell-based, Clone20 osteoblasts, luminescence, dry powder, set 2 (AID 743417)
Inconclusive results are not listed.
Measure: AC50

Input line: Item `Cc1ccc(-n2c(Cl)c(Cl)nc(Cl)c2=O)cc1` has what recorded AC50?
Output line: 1770 nM

Input line: Okay, and `COc1cc(NC(=O)Cn2ncc(Cl)c(Cl)c2=O)c(C)cc1[N+](=O)[O-]` ?
Output line: 3440 nM

Input line: Now consider CCCC(=O)NC(c1ccc(Cl)cc1Cl)c1ccc2cccnc2c1O (configuration not stated) .
Output line: 638 nM

Input line: Similarly, CCCC(=O)NC(c1ccc(OC)cc1)c1ccc2cccnc2c1O (configuration not stated) ?
Output line: 1180 nM

Input line: What do you have for `Cc1cc(Nc2ccccc2)nc(NCc2ccccc2)n1` ?
Output line: 1040 nM

Input line: And for `CCCC(=O)NC(=S)Nc1ccc(N2CCN(C(=O)c3cccs3)CC2)cc1` ?
Output line: 10100 nM

Input line: Record: CCC(=O)NC(c1ccco1)c1cc(Cl)c2cccnc2c1O (configuration not stated)
Output line: 1310 nM

Input line: Moving on to the next molecule: `Nc1nonc1C(=O)NCCNCc1cc(Br)ccc1OCc1ccccc1F`
Output line: 2500 nM

Input line: // repeat for `CC(=O)c1ccc(N2CCN(S(=O)(=O)c3ccc(-c4cnc(C5CC5)o4)cc3)CC2)cc1` and report
Output line: 5950 nM

Input line: What would you report for C=C1C(=O)OC2CC3(C)OC3C3OC3C3=CC(OC3=O)C12 (configuration not stated) ?
Output line: 1450 nM

Input line: Next molecule up: `COc1ccc(-c2csc(NC(=O)C3CCN(c4ncnc5sc(C)c(C)c45)CC3)n2)cc1OC`
Output line: 1420 nM

Input line: Query `O=C(Nc1ccc(S(=O)(=O)N2CCN(Cc3ccccc3)CC2)cc1)c1cnccn1` next
Output line: 1650 nM

Input line: Then what about the molecule `Cc1cc(NC(=O)CCN2CCN(C/C=C/c3ccccc3)CC2)ccc1Br` ?
Output line: 10200 nM

Input line: Could you do the same for COc1ccc(-c2nc(NC(=O)C3CC(=O)N(c4ccc5c(c4)OCCO5)C3)sc2C)cc1 (configuration not stated) , please?
Output line: 5240 nM

Input line: For CC(C)Cn1c(N)c(C(=O)COC(=O)C2Cc3ccccc3CN2S(C)(=O)=O)c(=O)n(C)c1=O (configuration not stated) then?
Output line: 720 nM

Input line: Thanks! And `O=S(=O)(c1cccs1)N1CCN(CCOc2ccc(Cl)cc2)CC1` ?
Output line: 13800 nM

Input line: # iterate: `Cn1c(=O)c2[nH]c(CCCCCCCCc3nc4ccccc4[nH]3)nc2n(C)c1=O`
Output line: 3980 nM

Input line: Check `CCc1cc2c(N3CCN(c4ccccc4)CC3)ncnc2s1` too.
Output line: 6180 nM

Input line: Then `Cc1nn(C)c(C(=O)NCc2ccc(Cl)cc2)c1Cl` ?
Output line: 1740 nM

Input line: What would you report for `Cn1cnc([N+](=O)[O-])c1S(=O)(=O)Oc1ccccc1` ?
Output line: 3830 nM

Input line: Note, next up: `N=C1S/C(=C\c2ccc(-c3cccc(Cl)c3)o2)C(=O)N1c1nccs1`
Output line: 2820 nM

Input line: Try CC(CCc1ccccc1)NC(=O)COC(=O)c1ccc(S(C)(=O)=O)c([N+](=O)[O-])c1 (configuration not stated) next.
Output line: 3340 nM

Input line: Check `COc1cc(CSc2nnnn2-c2ccc(C)cc2)cc(OC)c1OC` too.
Output line: 1020 nM

Input line: Consider next the molecule `CCOc1ccc(/C=C/[N+](=O)[O-])c2ccccc12` in the same way.
Output line: 4270 nM

Input line: Thanks! And `Cc1ccc(-c2ccc(/C=C3\C(=O)ON=C3c3ccccc3)o2)c([N+](=O)[O-])c1` ?
Output line: 3300 nM

Input line: Same question, CC(Nc1ncnc2sccc12)c1ccccc1 (configuration not stated) this time
Output line: 505 nM

Input line: And then `Cc1ccc(NC(=O)c2ccc(Cl)c(N3C(=O)C=CC3=O)c2)cc1` , what is it?
Output line: 1600 nM

Input line: `CCOC(=O)C1CCN(C(=O)c2ccc(OCC(=O)Nc3cccc(C(F)(F)F)c3)c(OC)c2)CC1` , same question.
Output line: 1750 nM

Input line: `O=C(Nc1ccc(Cl)cc1)Nc1ccc(N2CCCC2)c(S(=O)(=O)Nc2ccccc2Cl)c1` ?
Output line: 5200 nM

Input line: Further, for `COc1cnc(-c2ccccn2)nc1NC(C)C` ?
Output line: 2810 nM

Input line: Follow-up entry: `COc1ccc(C2=Nn3c([n+](C)c4ccccc43)SC2)cc1`
Output line: 1160 nM

Input line: And `CN(C)c1ccc(/C=C/c2ccc3c4ccccc4ccc3[n+]2-c2ccccc2)cc1` ?
Output line: < 260 nM
